Test system: RAJI cells
testName: Cell viability by trypan blue exclusion, RAJI
Type: cell-based, human
conditionParameters: Homo sapiens, Raji, 48 h; read-out: IC50 (mean ± SD) cell viability RAJI
Method: U-937 and RAJI cell lines were purchased from Deutsche Sammlung für Mikroorganismen und Zellkulturen (DSZM). Cells were maintained in RPMI 1640 (Lonza) supplemented with 10% fetal calf serum (Lonza) and 1% antibiotic–antimycotic (Lonza). Cells were treated with compounds at the indicated concentrations in exponential growth phase. Proliferation and viability were assessed by trypan blue exclusion analysis at the indicated time points.
# pIC50 listing for each entry below
Conceptually, pIC50 converts a concentration in mol/L into minus its log10.

Below, each entry is followed by its recorded pIC50 result.
> print(dat)
                                   molecule  result
1  c1ccc(CN2CCC(Nc3nc(N4CCN(c5ccccn5)CC4)nc4ccccc34)CC2)cc1 [Compound 13]    4.71
2  CN1CCCN(c2nc(NC3CCN(Cc4ccccc4)CC3)c3ccccc3n2)CC1 [Compound 4]    4.68
3  c1ccc(CN2CCC(Nc3nc(N4CCN(c5ccccc5)CC4)nc4ccccc34)CC2)cc1 [Compound 14]    5.47

Okay, now this molecule:
Q: What value of measured pIC50 is listed for c1ccc(CN2CCC(Nc3nc(N4CCCC4)nc4ccccc34)CC2)cc1 [Compound 10] ?
Ans: 4.73

###

# inhibition at 0.78 µM listing for each entry below
experimentalSystem: Human G9a (Homo sapiens)
Sequence (Q96KQ7 786-1210 limits assumed): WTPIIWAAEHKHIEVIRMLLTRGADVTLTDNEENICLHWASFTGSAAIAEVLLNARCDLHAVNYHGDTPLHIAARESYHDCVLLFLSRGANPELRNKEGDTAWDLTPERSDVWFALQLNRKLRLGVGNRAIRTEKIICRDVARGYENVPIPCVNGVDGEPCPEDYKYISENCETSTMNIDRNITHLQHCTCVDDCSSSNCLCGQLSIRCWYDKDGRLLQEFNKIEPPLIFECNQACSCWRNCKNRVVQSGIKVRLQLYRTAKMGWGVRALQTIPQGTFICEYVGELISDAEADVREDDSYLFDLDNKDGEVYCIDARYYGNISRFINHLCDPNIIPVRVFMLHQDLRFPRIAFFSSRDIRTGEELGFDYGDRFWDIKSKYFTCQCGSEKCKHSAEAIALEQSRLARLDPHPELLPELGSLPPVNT
testName: G9a assay (3H-AdoMet filter-binding)
Type: biochemical
conditionParameters: 0.78 μM
Please append the unit to your numeric answer.

Below, each entry is followed by its recorded inhibition at 0.78 µM result.
> print(dat)
                                givensmiles        experimentalsystem           quantityname  result
1  c1ccc(CN2CCC(Nc3nc(N4CCN(c5ccccc5)CC4)nc4ccccc34)CC2)cc1  Human G9a (Homo sapiens)  inhibition at 0.78 µM   17.3%
2  CN1CCCN(c2nc(NC3CCN(Cc4ccccc4)CC3)c3ccccc3n2)CC1  Human G9a (Homo sapiens)  inhibition at 0.78 µM      0%

Q: What value of measured inhibition at 0.78 µM is listed for c1ccc(CN2CCC(Nc3nc(N4CCCC4)nc4ccccc34)CC2)cc1 ?
Ans: 0.3%

Q: Param item: c1ccc(CN2CCC(Nc3nc(N4CCN(c5ccccn5)CC4)nc4ccccc34)CC2)cc1
Ans: 9.4%

###

experimentalSystem: human DNMT1 (hDNMT1) (Homo sapiens)
Construct: His
Sequence (P26358 whole entry): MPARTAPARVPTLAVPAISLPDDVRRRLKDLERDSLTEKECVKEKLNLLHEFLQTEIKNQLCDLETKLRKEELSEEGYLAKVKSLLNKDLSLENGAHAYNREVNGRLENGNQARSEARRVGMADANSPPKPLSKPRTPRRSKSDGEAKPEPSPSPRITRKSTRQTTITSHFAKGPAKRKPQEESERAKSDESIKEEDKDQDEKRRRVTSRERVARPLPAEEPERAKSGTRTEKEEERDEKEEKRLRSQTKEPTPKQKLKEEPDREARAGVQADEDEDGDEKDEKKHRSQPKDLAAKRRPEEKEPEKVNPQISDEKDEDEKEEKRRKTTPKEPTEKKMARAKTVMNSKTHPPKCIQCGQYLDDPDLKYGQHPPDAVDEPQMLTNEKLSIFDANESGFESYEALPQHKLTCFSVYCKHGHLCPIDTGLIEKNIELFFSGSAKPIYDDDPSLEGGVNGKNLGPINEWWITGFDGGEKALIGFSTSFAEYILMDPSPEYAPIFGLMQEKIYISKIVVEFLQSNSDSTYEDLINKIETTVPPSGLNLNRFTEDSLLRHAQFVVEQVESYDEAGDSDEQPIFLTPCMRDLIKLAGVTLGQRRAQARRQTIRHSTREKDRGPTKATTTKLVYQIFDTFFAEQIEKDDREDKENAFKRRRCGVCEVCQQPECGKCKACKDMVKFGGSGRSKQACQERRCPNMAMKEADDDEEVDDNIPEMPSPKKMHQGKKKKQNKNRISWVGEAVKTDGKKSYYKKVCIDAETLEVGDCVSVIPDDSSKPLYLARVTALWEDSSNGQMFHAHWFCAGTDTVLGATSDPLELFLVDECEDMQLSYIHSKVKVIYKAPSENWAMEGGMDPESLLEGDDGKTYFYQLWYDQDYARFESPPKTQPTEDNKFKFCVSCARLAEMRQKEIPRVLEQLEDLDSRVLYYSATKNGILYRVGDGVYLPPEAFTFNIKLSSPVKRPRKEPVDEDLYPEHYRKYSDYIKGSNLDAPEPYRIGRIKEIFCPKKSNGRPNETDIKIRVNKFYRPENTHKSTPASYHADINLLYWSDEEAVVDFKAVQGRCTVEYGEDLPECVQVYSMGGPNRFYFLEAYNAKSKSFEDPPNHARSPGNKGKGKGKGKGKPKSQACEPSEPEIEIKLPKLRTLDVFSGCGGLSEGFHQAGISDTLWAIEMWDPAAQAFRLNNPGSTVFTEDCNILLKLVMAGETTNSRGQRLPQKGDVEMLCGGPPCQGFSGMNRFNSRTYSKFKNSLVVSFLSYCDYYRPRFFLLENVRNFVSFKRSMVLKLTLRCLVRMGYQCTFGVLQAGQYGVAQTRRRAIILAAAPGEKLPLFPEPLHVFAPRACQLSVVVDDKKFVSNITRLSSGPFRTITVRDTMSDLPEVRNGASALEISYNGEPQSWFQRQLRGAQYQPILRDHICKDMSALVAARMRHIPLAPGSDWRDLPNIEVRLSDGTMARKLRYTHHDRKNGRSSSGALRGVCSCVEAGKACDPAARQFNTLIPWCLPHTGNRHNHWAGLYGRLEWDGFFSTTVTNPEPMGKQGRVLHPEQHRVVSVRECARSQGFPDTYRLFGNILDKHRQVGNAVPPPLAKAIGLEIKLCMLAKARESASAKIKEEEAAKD
testName: DNMT1 assay (radioactive Flashplate methylation assay)
conditionParameters: means of at least three experiments
quantityName: EC50 (µM)
Please state the figure in µM; there is no need to write the unit.

Q: What value of measured EC50 is listed for c1ccc(CN2CCC(Nc3nc(N4CCCC4)nc4ccccc34)CC2)cc1 ?
Ans: 144

###

# inhibition at 1.56 µM listing for each entry below
experimentalSystem: Human G9a (Homo sapiens)
testName: G9a assay (3H-AdoMet filter-binding)
Type: biochemical
conditionParameters: 1.56 μM

Below, each entry is followed by its recorded inhibition at 1.56 µM result.
> print(dat)
                                   compound           quantityname  result
1  c1ccc(CN2CCC(Nc3nc(N4CCCC4)nc4ccccc34)CC2)cc1 [Compound 10]  inhibition at 1.56 µM   13.4%
2  c1ccc(CN2CCC(Nc3nc(N4CCN(c5ccccn5)CC4)nc4ccccc34)CC2)cc1 [Compound 13]  inhibition at 1.56 µM   21.6%
3  c1ccc(CN2CCC(Nc3nc(N4CCN(c5ccccc5)CC4)nc4ccccc34)CC2)cc1 [Compound 14]  inhibition at 1.56 µM   13.5%

Q: What value of measured inhibition at 1.56 µM is listed for CN1CCCN(c2nc(NC3CCN(Cc4ccccc4)CC3)c3ccccc3n2)CC1 [Compound 4] ?
Ans: 0%
